Origin of measurements: the RNAGym collection of RNA variant scans (doi:10.1038/nmeth.2970)

B1: NELF-E aptamer (parent)
chain: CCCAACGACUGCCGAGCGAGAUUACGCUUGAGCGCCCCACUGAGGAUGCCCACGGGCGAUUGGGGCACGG

# Variants of: B1
# protocol-text: HiTS-RAP
# condition-summary: with NELF-E (Drosophila)
Label Y when Kd is strictly below 7 nM; at or above that, label N.

{"columns": ["sequence-code", "label-class"],
 "data": [
  ["CCCAACGACGGCCGAGCGAGAUUACGCUUGAGCGCCCCACUGAGGAUGCCCACGCGCGAUUGGGGCACGG [U10G G55C]", "N"]
]}

Query string: Does the reported Kd of CCCAACGUCUGCCGAGCGGGAUUACGCUUGAGCGCCCCACUGAGGAUGCCCACGGGCGAUUGGGGCACGG [A8U A19G] stay below 7 nM?
Result string: Y

Query string: Same for CCCGACGACUGCCGAGCGAGAUUACGCUUGAGCGCUCCACUGAGGAUGCCCACGGGCGAUUGGGGCACGG [A4G C36U]
Result string: N

Query string: Same for CCCAACGAGUGCCGAGCGAGAUUACGCUUGAGCGCCCCACUGAGGAUGCCCACGGUCGAUUGGGGCACGG [C9G G56U]
Result string: Y
